# system_under_test: T1, human TIGIT (human, UniProt Q495A1 22-244)
# T1 construct: Cell-surface form; also called huTIGIT
# T1 sequence: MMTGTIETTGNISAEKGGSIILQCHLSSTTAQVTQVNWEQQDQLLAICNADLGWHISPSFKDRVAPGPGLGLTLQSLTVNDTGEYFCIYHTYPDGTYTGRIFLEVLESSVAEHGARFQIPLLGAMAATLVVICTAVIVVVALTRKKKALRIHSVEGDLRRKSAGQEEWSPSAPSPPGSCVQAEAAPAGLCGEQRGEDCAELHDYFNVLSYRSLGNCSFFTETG
# run_description: flow cytometry on CHO-S cells expressing human TIGIT, competitor huCD155-Fc-Alexa 647, at 1.7 µg/mL
property_measured: % inhibition (%)
The answer is to be given in %; state only the numeric part.

binder | measured_result
4G10 (antibody, V domains shown, Fully human XenoMouse antibody, tested as hybridoma supernatant or purified mAb) VH: QVQLQESGPGLVNPSQTLSLTCIVSGGSIRSGDYYWSWIRQHPGKGLEWIGYIYYSGGTYYNPSLKSRVIISVDTTKNQFSLKLSSMTAADTAVYYCARGSIAARSGYFYFSGLDVWGQGPTVTVSS VL: EIVLTQTPLSLSVTPGQPASISCKSSQSLLPSDGKTYLSWYLQKPGLPPQVLIYEVSNRFSGVPDRFSGSGSGTDFTLKISRVEAEDVGVYYCMQSIQLPLTFGGGTKVEIKR | 100
66H9 (antibody, V domains shown, Fully human XenoMouse antibody, tested as hybridoma supernatant or purified mAb) VH: QVQLQESGPGLVKPSQTLSLTCTVSGGSISSVYFYWNWIRQHPGKGLEWIGYIYYSGGTYYNPSLRSRVTISVDTSKNQFSLKLNSVTAADTAVYYCARGSIAAGGGYFYYNDMDVWGQGTTVTVSS VL: EIVLTQSPDFQSVTPKEKVAITCRASQSIGSSLHWYQQKPDQSPKPLIKYVSQSFSGVPSRFSGSGSGTDFTLTINSLEAEDAATYYCHQSSSLPLTFGGGTKVEIKR | 98
28B8 (antibody, V domains shown, Fully human XenoMouse antibody, tested as hybridoma supernatant or purified mAb) VH: QVQLQESGPGLVKPSETLFLTCTVSGGSVTNYYWSWIRQPAGKGLEWIGRIYTSGSTYYNPSLKSRVTMSLDTSKNQFSLRLSSVTAADTAVYYCAREGFTMVRGVMGAFDIWGQGTMVTVSS VL: DIQMTQSPSSLSASVGDRVTITCRASQSIRRYLNWYQQIPGKAPKFLIYDASSLQSGVPSRFSGSGSGTDFTLTISSLQPEDFATYYCQQSYSTPPTFGQGTKVEIKR | 100

Now look at this one.
Give reported % inhibition value for 11A3 (antibody, V domains shown, Fully human XenoMouse antibody, tested as hybridoma supernatant or purified mAb) VH: QVQLVQSGAEVKKPGASVKVSCKASGYTFTSYYIHWVRQAPGQGLEWMGIINPSGGRTSYAQMFQGRVTLTRDTSTNTVYMELSSLRSEDTAVFYCAKDREEQWPVGGFDYWGQGTLVTVSS VL: DIQMTQSPSSLSASVGDRVTITCRASQNIRRYLNWYQQKPGKAPELLIYSASNLQNGVPSRFSGSGSGTDFTLTISSLQPEDFATYYCQQSYIIPPTFGQGTKVEIRR
100
